Taken from patent US20120276119A1.

# subject_of_test: T1, Human CD37 (human, UniProt P11049 1-278)
# T1 sequence: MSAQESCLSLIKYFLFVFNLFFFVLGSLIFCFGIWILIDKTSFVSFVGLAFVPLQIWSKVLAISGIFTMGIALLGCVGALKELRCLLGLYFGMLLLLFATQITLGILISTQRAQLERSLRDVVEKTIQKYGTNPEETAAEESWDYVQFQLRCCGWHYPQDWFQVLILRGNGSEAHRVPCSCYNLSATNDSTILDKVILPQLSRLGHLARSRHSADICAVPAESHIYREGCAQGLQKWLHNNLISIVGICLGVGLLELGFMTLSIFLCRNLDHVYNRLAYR
# test: cell-based or functional assay
measured_quantity: in vitro depletion of B-cells, whole human blood, 10 µg/mL, one donor

Completed entries (count: 3):
binder	recorded_value
huCD37-50 (antibody, human IgG1, kappa, V domains shown) VH: QVQLQESGPGLLKPSQSLSLTCTVSGYSITSGFAWHWIRQHPGNKLEWMGYILYSGSTVYSPSLKSRISITRDTSKNHFFLQLNSVTAADTATYYCARGYYGYGAWFAYWGQGTLVTVSA VL: EIVLTQSPATMSASPGERVTMTCSATSSVTYMHWYQQKPGQSPKRWIYDTSNLPYGVPARFSGSGSGTSYSLTISSMEAEDAATYYCQQWSDNPPTFGQGTKLEIKR	~40%
huCD37-3 (antibody, V domains shown) VH: QVQVQESGPGLVAPSQTLSITCTVSGFSLTTSGVSWVRQPPGKGLEWLGVIWGDGSTNYHPSLKSRLSIKKDHSKSQVFLKLNSLTAADTATYYCAKGGYSLAHWGQGTLVTVSS VL: DIQMTQSPSSLSVSVGERVTITCRASENIRSNLAWYQQKPGKSPKLLVNVATNLADGVPSRFSGSGSGTDYSLKINSLQPEDFGTYYCQHYWGTTWTFGQGTKLEIKR	~40%
huCD37-3-SMCC-DM1 (antibody, V domains shown, DM1 maytansinoid linked via SMCC; sites, chain and drug load in the assay not stated) VH: QVQVQESGPGLVAPSQTLSITCTVSGFSLTTSGVSWVRQPPGKGLEWLGVIWGDGSTNYHPSLKSRLSIKKDHSKSQVFLKLNSLTAADTATYYCAKGGYSLAHWGQGTLVTVSS VL: DIQMTQSPSSLSVSVGERVTITCRASENIRSNLAWYQQKPGKSPKLLVNVATNLADGVPSRFSGSGSGTDYSLKINSLQPEDFGTYYCQHYWGTTWTFGQGTKLEIKR	~40%

// switching to the query binder
Q: Consider the binder shown here: huCD37-50-SMCC-DM1 (antibody, human IgG1, kappa, V domains shown, DM1 maytansinoid linked via SMCC; sites, chain and drug load in the assay not stated) VH: QVQLQESGPGLLKPSQSLSLTCTVSGYSITSGFAWHWIRQHPGNKLEWMGYILYSGSTVYSPSLKSRISITRDTSKNHFFLQLNSVTAADTATYYCARGYYGYGAWFAYWGQGTLVTVSA VL: EIVLTQSPATMSASPGERVTMTCSATSSVTYMHWYQQKPGQSPKRWIYDTSNLPYGVPARFSGSGSGTSYSLTISSMEAEDAATYYCQQWSDNPPTFGQGTKLEIKR What is its recorded in vitro depletion of B-cells, whole human blood, 10 µg/mL, one donor?
Result: ~40%
